Assign Response to each entry below.
studyTarget: T1, P66 (rabbit ANGPTL7-his) (rabbit, UniProt G1T4P1 27-344)
T1 construct: mature; also called rabbit ANGPTL7 protein
T1 sequence: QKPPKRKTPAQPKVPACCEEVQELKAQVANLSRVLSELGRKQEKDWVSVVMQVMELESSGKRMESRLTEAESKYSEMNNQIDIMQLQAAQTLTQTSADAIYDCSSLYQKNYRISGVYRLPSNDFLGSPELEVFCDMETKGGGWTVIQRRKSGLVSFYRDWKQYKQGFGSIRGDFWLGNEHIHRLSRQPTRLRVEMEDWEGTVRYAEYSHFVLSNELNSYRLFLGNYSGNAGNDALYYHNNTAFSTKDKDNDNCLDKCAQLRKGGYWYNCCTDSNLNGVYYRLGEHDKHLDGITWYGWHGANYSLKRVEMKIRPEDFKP
protocolNotes: BLI Octet HTX; IgG on AHC sensor; P66 at 200 nM; 1:1 fit
Field: numeric (nm). Do not append units.

// Response lookup, binder = ATX-P-423 (antibody, human IgG1, kappa, N297A, V domains shown, Full chains (VH + hIgG1-Agly-Fc)) VH: QVQLVESGGGVVQPGRSLRLSCAASGFTFSSYGMHWVRQAPGKGLEWVSHITYDGSDKYYGDSVKGRFTISRDNSKNTLYLQMNSLRAEDTAVYYCAKDGYSSGWWYFDYWGQGTLVTVSS VL: DIQMTQSPSSLSASVGDRVTITCRASQGIRNDLGWYQQKPGKAPKRLIYAASSLQSGVPSRFSGSGSGTEFALTISSLQPEDFATYYCLQHNSYPLTFGGGTKLEIKR , result: 1.02

The measured Response associated with ATX-P-442 (antibody, human IgG1, kappa, N297A, V domains shown, Full chains (VH + hIgG1-Agly-Fc)) VH: QITLKESGPTLVKPTQTLTLTCTFSGFSLSTSGVGVGWIRQPPGKALEWLALIYWNDDKRYSPSLKSRLTITKDTSKNLVVLTMTNMDPVDTATYYCARDYGDYWFFDLWGRGTPVTVSS VL: DIQMTQSPSSLSASVGDRVTITCRASQGISSYLAWYQQKPGKAPKLLIYAASSLQSGVPSRFSGSGSGTDFTLTISSLQPEDFATYYCQQSFSTPLTFGGGTKLEIKR reads 0.95

Origin of measurements: patent US20250296996A1
